B1: CPEB3 Ribozyme (parent)
chain: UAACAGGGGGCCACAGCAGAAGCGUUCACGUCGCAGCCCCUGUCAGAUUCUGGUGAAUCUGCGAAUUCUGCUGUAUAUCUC

Variants of: B1
Procedure summary: self-cleavage, relative activity (ratio to wild type); higher = more cleavage; in vitro, sequencing
// label = 1.0 if self-cleavage is not less than 0.5, otherwise 0.0

Here are 4 variants together with their reported answers.
Check if self-cleavage >= 0.5 (inclusive). Item: UAACAGGGGGCCACAGCAGAAGCGUUCACGACGCAGCCCCUGUCAGAUUCUGGUGAAUGUGCGAAUUCUGCUGUAUAUCUC
0.0

Exam item: decide whether the reported self-cleavage for UAACAGGGGGCCACAGCAGAAGCGUUAACGUCGCAGUCCCUGUCAGAUUCUGGUGAAUCUGCGAAUUCUGCUGUAUAUCUC is at least 0.5.
0.0

Is the recorded value of self-cleavage equal to or greater than 0.5 for this variant? UAACUGGGGGCCCCAGCAGAAGCGUUCACGUCGCAGCCCCUGUCAGAUUCUGGUGAAUCUGCGAAUUCUGCUGUAUAUCUC
1.0

Assess whether reported self-cleavage for UAACAGGGGGCCACAACAGAAGCGUUCACGUCGCAGCCCCUGUCAGAUUCUGGUGAAUCUGCGAAUUCUGCUGUAUGUCUC sits at 0.5 or higher.
1.0

***
Could you please find out whether UAACAGGGGGCCACAGCAGAAGCGUUCACGUCGCAGCCCCUGUCAGAUUCUGGUGAAUCUGCGAAUUCUGCUGUAAGUCUC has self-cleavage that meets 0.5 or exceeds it?
1.0

Say whether UAACAGGAGGCCACAGCAGAAGCGUUCACGUCGCAGCCCCUGUCAGAUUCUGGUGAAUCUGCGAAUUCUGCUGAAUAUCUC shows self-cleavage of 0.5 or more.
0.0

Given UAACAGGGGGCCACAGCAGAAGCGUUCACGUCGCAGCCCCUGUCAGAUUCUGGUGAAUCUGCGAAUUCUGCUGAGUAUCUC , state whether its self-cleavage is at least 0.5.
1.0
